inhibition values by entry
study_system: P110 δ/Pi3K δ (Homo sapiens, UniProt O00329)
Sequence (O00329 whole entry, canonical isoform): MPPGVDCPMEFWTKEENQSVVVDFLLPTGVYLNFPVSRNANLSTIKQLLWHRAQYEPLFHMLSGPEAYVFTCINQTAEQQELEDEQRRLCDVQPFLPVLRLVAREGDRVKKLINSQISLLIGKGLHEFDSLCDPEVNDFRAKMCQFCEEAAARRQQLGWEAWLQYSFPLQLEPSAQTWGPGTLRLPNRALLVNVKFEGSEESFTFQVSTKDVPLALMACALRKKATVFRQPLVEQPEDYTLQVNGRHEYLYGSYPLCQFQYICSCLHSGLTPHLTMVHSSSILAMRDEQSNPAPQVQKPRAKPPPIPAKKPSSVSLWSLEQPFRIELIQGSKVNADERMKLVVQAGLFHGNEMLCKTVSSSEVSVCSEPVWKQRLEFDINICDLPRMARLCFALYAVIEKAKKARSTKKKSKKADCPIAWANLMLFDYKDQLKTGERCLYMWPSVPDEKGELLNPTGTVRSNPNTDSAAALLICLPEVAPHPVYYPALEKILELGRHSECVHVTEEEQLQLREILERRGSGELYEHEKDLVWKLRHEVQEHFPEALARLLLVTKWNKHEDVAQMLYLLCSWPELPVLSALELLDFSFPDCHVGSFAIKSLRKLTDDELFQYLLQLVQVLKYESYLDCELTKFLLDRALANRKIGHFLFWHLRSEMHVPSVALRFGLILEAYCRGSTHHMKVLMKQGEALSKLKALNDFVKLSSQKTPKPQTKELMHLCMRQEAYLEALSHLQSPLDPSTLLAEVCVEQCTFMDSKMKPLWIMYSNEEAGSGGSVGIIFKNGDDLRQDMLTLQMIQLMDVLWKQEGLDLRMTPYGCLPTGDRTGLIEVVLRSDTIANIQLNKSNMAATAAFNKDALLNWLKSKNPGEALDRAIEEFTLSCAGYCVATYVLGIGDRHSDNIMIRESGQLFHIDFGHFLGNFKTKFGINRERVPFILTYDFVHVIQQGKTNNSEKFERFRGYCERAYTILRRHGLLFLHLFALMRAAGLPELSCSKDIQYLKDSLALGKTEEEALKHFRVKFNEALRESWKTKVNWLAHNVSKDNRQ
Sequence (P27986 whole entry partner, canonical isoform): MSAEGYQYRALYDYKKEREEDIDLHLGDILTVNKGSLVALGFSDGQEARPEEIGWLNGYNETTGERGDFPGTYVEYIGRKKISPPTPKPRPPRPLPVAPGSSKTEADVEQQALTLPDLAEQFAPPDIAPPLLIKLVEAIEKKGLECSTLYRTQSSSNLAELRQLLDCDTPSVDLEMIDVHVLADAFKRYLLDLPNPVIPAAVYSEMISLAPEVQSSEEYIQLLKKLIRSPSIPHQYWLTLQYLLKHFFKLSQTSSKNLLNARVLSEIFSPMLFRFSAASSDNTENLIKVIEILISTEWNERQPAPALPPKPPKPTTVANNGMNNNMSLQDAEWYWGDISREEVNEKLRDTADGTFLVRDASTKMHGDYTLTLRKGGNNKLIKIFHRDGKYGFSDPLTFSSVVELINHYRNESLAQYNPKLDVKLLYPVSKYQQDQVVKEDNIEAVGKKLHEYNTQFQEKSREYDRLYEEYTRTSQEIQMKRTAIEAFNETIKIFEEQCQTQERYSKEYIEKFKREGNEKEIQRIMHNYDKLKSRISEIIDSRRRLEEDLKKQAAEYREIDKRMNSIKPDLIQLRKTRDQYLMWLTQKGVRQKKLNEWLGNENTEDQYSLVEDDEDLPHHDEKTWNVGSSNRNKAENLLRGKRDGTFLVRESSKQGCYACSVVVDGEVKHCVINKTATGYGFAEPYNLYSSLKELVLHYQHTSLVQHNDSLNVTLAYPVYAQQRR
assay_method_text: Fluorescent (HTRF) determination of PI3K enzyme activity, δ isoform
Assay type: biochemical
Parameters: dose or concentration left out as unconfirmed

[
  {
    "compound": "CC(c1oc2ccccc2c(=O)c1-c1cccc(F)c1)n1nc(-c2ccc(S(C)(=O)=O)cc2)c2c(N)ncnc21 (stereo not shown)",
    "study_system": "P110 δ/Pi3K δ (Homo sapiens, UniProt O00329)",
    "inhibition": "< 50%"
  },
  {
    "compound": "Cc1n[nH]c2ccc(-c3nn(C(C)c4oc5ccccc5c(=O)c4-c4cccc(F)c4)c4ncnc(N)c34)cc12 (stereo not shown)",
    "study_system": "P110 δ/Pi3K δ (Homo sapiens, UniProt O00329)",
    "inhibition": "< 50%"
  },
  {
    "compound": "Cc1c[nH]c2cc(-c3nn(C(C)c4oc5ccccc5c(=O)c4-c4cccc(F)c4)c4ncnc(N)c34)ccc12 (stereo not shown)",
    "study_system": "P110 δ/Pi3K δ (Homo sapiens, UniProt O00329)",
    "inhibition": "50 to 100%"
  },
  {
    "compound": "Cc1nc2cc(-c3nn(C(C)c4oc5ccccc5c(=O)c4-c4cccc(F)c4)c4ncnc(N)c34)ccc2[nH]1 (stereo not shown)",
    "study_system": "P110 δ/Pi3K δ (Homo sapiens, UniProt O00329)",
    "inhibition": "50 to 100%"
  },
  {
    "compound": "Nc1ncnc2c1c(-c1cn[nH]c1)nn2Cc1oc2ccc(F)cc2c(=O)c1-c1ccccc1",
    "study_system": "P110 δ/Pi3K δ (Homo sapiens, UniProt O00329)",
    "inhibition": "< 50%"
  },
  {
    "compound": "Nc1cccc(-c2nn(Cc3oc4ccccc4c(=O)c3-c3ccccc3)c3ncnc(N)c23)c1",
    "study_system": "P110 δ/Pi3K δ (Homo sapiens, UniProt O00329)",
    "inhibition": "< 50%"
  },
  {
    "compound": "CC(c1oc2ccccc2c(=O)c1-c1cccc(F)c1)n1ccc2c(Cl)ncnc21 (stereo not shown)",
    "study_system": "P110 δ/Pi3K δ (Homo sapiens, UniProt O00329)",
    "inhibition": "< 50%"
  }
]

Just for reference, patent US9421209B2 is where these values come from.
